Answer each item with its documented koff.
Molecular target: T1, hNPR1-mFc:hBNP complex (human, UniProt P16860 103-134)
T1 construct: also called human NPR1 complexed to BNP
Test: SPR, mAb captured, 37C
Procedure: Equilibrium dissociation constant (KD) for different NPR1 reagents binding to purified anti-NPR1 monoclonal antibodies (mAbs) were determined using a real-time surface plasmon resonance based Biacore 4000 biosensor. All binding studies were performed in 10 mM HEPES, 150 mM NaCl, 3 mM EDTA, and 0.05% v/v Surfactant Tween-20, pH 7.4 (HBS-ET) running buffer at 25° C. and 37° C. […]
Please state the figure in s⁻¹; there is no need to write the unit.

The recorded koff for mAb25479 (antibody, human IgG4, V domains shown) VH: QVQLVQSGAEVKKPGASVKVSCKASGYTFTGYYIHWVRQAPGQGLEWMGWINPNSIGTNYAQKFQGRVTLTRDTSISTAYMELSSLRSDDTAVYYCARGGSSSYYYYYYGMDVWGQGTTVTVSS VL: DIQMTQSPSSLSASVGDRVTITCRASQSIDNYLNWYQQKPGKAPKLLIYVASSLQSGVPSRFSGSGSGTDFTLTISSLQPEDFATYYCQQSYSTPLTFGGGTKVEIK is 0.000163

The recorded koff for mAb22033 (antibody, human IgG4, V domains shown) VH: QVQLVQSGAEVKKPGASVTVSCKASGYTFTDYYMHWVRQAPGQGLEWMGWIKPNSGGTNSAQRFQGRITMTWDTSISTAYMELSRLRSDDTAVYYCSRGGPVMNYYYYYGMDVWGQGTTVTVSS VL: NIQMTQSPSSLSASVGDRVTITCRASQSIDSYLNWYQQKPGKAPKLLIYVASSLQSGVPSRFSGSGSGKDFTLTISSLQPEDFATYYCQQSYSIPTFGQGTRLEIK is 9.6e-05

The recorded koff for mAb25497 (antibody, human IgG4, V domains shown) VH: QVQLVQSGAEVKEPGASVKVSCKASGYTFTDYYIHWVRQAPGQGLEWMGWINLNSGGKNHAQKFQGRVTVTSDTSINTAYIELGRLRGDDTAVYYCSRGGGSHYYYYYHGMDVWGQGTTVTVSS VL: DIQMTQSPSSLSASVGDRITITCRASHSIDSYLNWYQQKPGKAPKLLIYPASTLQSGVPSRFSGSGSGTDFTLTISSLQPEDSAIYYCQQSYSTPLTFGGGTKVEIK is 0.000116
